System: KRAS patient-derived spheroids with HUVEC/MSC, viability
Assay: Anticancer human tumor 323965-272-R-J2-PDC patient-derived pancreatic carcinoma cell line growth inhibition [KRAS2]
Settings: second compound 1 µM; first compound 0.1 µM; active compounds read low
# label = 1 if viability, T/C < 70% else 0

### Prompt Lab log: compare recorded viability, T/C with 70%; is it strictly lower for Cn1nccc1Nc1nccc(-c2cc3c(s2)C(C)(C)N(CCN2CCOCC2)C3=O)n1 + CNCc1ccccc1-c1csc(C(C)Nc2nc(C)nc3cc(OC)c(OC)cc23)c1 ?
### Response 0

### Prompt Problem: For the compound CC(C)n1nc(-c2ccc3oc(N)nc3c2)c2c(N)ncnc21 + C=CC(=O)N1CCN(c2nc(=O)n(-c3c(C)ccnc3C(C)C)c3nc(-c4c(O)cccc4F)c(F)cc23)C(C)C1 , is viability, T/C under 70%?
### Response 1

### Prompt Does the reported viability, T/C of the following compound sit strictly below 70%? CN(C)C/C=C/C(=O)Nc1cc2c(Nc3ccc(F)c(Cl)c3)ncnc2cc1O[C@H]1CCOC1 + CNCc1ccccc1-c1csc(C(C)Nc2nc(C)nc3cc(OC)c(OC)cc23)c1
### Response 1

### Prompt Determine if O=C(c1cc(Cc2n[nH]c(=O)c3ccccc23)ccc1F)N1CCN(C(=O)C2CC2)CC1 + C=CC(=O)N1CCN(c2nc(OCC3CCCN3C)nc3c2CCN(c2cccc4cccc(C)c24)C3)CC1CC#N shows viability, T/C strictly lower than 70%.
### Response 1

### Prompt Consider the compound CCN1CCN(Cc2ccc(Nc3ncc(F)c(-c4cc(F)c5nc(C)n(C(C)C)c5c4)n3)nc2)CC1 + C=CC(=O)N1CCN(c2nc(OCC3CCCN3C)nc3c2CCN(c2cccc4cccc(C)c24)C3)CC1CC#N . Is its viability, T/C strictly less than 70%?
### Response 1

### Prompt Would you kindly verify if viability, T/C of Cn1ncnc1[C@H]1c2n[nH]c(=O)c3cc(F)cc(c23)N[C@@H]1c1ccc(F)cc1 + CC1OCC2(CCN(c3cnc(Sc4ccnc(N)c4Cl)c(N)n3)CC2)C1N is strictly less than 70%?
### Response 1

### Prompt Lab note: viability, T/C threshold 70%. Does this compound come in strictly under it? Cn1ncnc1[C@H]1c2n[nH]c(=O)c3cc(F)cc(c23)N[C@@H]1c1ccc(F)cc1 + COc1cc2nc(C)nc(NC(C)c3cc(N)cc(C(F)(F)F)c3)c2cc1OC1CCOC1
### Response 1

### Prompt Dear reviewer, please state whether CC(C)NCC(C(=O)N1CCN(c2ncnc3c2C(C)CC3O)CC1)c1ccc(Cl)cc1 (stereo unspecified) + C=CC(=O)N1CCN(c2nc(OCC3CCCN3C)nc3c2CCN(c2cccc4cccc(C)c24)C3)CC1CC#N has viability, T/C strictly beneath 70%.
### Response 1

### Prompt Would you kindly verify if viability, T/C of CN(C)C/C=C/C(=O)Nc1cc2c(Nc3ccc(F)c(Cl)c3)ncnc2cc1O[C@H]1CCOC1 + CC1OCC2(CCN(c3cnc(Sc4ccnc(N)c4Cl)c(N)n3)CC2)C1N is strictly less than 70%?
### Response 1

### Prompt Quick check: does CC(C)NCC(C(=O)N1CCN(c2ncnc3c2C(C)CC3O)CC1)c1ccc(Cl)cc1 (stereo unspecified) + CNCc1ccccc1-c1csc(C(C)Nc2nc(C)nc3cc(OC)c(OC)cc23)c1 have viability, T/C under 70%?
### Response 0

----------
So I've got a bunch of compounds here, and I need their viability, T/C values.
System: KRAS patient-derived spheroids with HUVEC/MSC, viability
Test: Anticancer human tumor 323965-272-R-J2-PDC cell line growth inhibition [KRAS2];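 further: spheroids exposed to agents for 7 days; 100% = DMSO vehicle control viability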
Details: second compound 3.16 µM; first compound 0.1 µM; active compounds read low

// field: viability, T/C; key: CC(=O)OC12COC1CC(O)C1(C)C(=O)C(O)C3=C(C)C(OC(=O)C(O)C(NC(=O)OC(C)(C)C)c4ccccc4)CC(O)(C(OC(=O)c4ccccc4)C21)C3(C)C (centres undefined) + CC1OCC2(CCN(c3cnc(Sc4ccnc(N)c4Cl)c(N)n3)CC2)C1N ; value = 14.8%

The reported viability, T/C of the compound CC(=O)OC12COC1CC(O)C1(C)C(=O)C(O)C3=C(C)C(OC(=O)C(O)C(NC(=O)OC(C)(C)C)c4ccccc4)CC(O)(C(OC(=O)c4ccccc4)C21)C3(C)C (centres undefined) + C=CC(=O)N1CCN(c2nc(OCC3CCCN3C)nc3c2CCN(c2cccc4cccc(C)c24)C3)CC1CC#N was 26.5%

Noted for CC1(C)CCC(CN2CCN(c3ccc(C(=O)NS(=O)(=O)c4ccc(NCC5CCOCC5)c([N+](=O)[O-])c4)c(Oc4cnc5[nH]ccc5c4)c3)CC2)=C(c2ccc(Cl)cc2)C1 + C=CC(=O)N1CCN(c2nc(=O)n(-c3c(C)ccnc3C(C)C)c3nc(-c4c(O)cccc4F)c(F)cc23)C(C)C1 : its viability, T/C reads 62.3%

Kindly note the recorded viability, T/C for CN(C)C/C=C/C(=O)Nc1cc2c(Nc3ccc(F)c(Cl)c3)ncnc2cc1O[C@H]1CCOC1 + C=CC(=O)N1CCN(c2nc(OCC3CCCN3C)nc3c2CCN(c2cccc4cccc(C)c24)C3)CC1CC#N , which is 14.7%

----------
Test system: KRAS patient-derived spheroids with HUVEC/MSC, viability
Assay: Anticancer human tumor 323965-272-R-J2-PDC cell line growth inhibition [KRAS2]; active = viability on the fitted dose curve at most 10% of control; inactive = the rest;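 further: spheroids exposed to agents for 7 days; 100% = DMSO vehicle control viability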
Settings: second compound 10 µM; first compound 0.00316 µM
Description: Multicellular complex tumor spheroid response to RAS pathway inhibitors in combination with a targeted agents in patient-derived cell lines with oncogenic KRAS variants from multiple cancer types A high-throughput screen of multi-cell type tumor spheroids was designed to identify active combinations of targeted small molecules and KRAS pathway inhibitors. […] Compounds. […] If the clinical Cmax for an agent had not been determined, the highest concentration tested was 10 microM. […]
Allowed answers: true (1) = active, false (0) = inactive

### Prompt Any idea what this test logged for CCN1CCN(Cc2ccc(Nc3ncc(F)c(-c4cc(F)c5nc(C)n(C(C)C)c5c4)n3)nc2)CC1 + CNCc1ccccc1-c1csc(C(C)Nc2nc(C)nc3cc(OC)c(OC)cc23)c1 ?
### Response true (1)

### Prompt Hello, I am checking results. What call was entered for CN(C)C/C=C/C(=O)Nc1cc2c(Nc3ccc(F)c(Cl)c3)ncnc2cc1O[C@H]1CCOC1 + CC1OCC2(CCN(c3cnc(Sc4ccnc(N)c4Cl)c(N)n3)CC2)C1N ?
### Response false (0)

### Prompt # fetch the recorded call for CC(=O)Nc1cccc(-n2c(=O)n(C3CC3)c(=O)c3c(Nc4ccc(I)cc4F)n(C)c(=O)c(C)c32)c1 + COc1cc2nc(C)nc(NC(C)c3cc(N)cc(C(F)(F)F)c3)c2cc1OC1CCOC1 here
### Response false (0)

### Prompt I would be grateful if you could indicate the recorded call for CN(C)C/C=C/C(=O)Nc1cc2c(Nc3ccc(F)c(Cl)c3)ncnc2cc1O[C@H]1CCOC1 + CNCc1ccccc1-c1csc(C(C)Nc2nc(C)nc3cc(OC)c(OC)cc23)c1 .
### Response true (1)

### Prompt Please share the test call associated with CC(C)n1nc(-c2ccc3oc(N)nc3c2)c2c(N)ncnc21 + COc1cc2nc(C)nc(NC(C)c3cc(N)cc(C(F)(F)F)c3)c2cc1OC1CCOC1 .
### Response false (0)

### Prompt GET /call?item= CC(=O)Nc1cccc(-n2c(=O)n(C3CC3)c(=O)c3c(Nc4ccc(I)cc4F)n(C)c(=O)c(C)c32)c1 + CNCc1ccccc1-c1csc(C(C)Nc2nc(C)nc3cc(OC)c(OC)cc23)c1 returns the recorded outcome of this test.
### Response true (1)

### Prompt Which outcome did this test record for the compound CC(C)n1nc(-c2ccc3oc(N)nc3c2)c2c(N)ncnc21 + CNCc1ccccc1-c1csc(C(C)Nc2nc(C)nc3cc(OC)c(OC)cc23)c1 ?
### Response true (1)

### Prompt For CCN1CCN(Cc2ccc(Nc3ncc(F)c(-c4cc(F)c5nc(C)n(C(C)C)c5c4)n3)nc2)CC1 + CC1OCC2(CCN(c3cnc(Sc4ccnc(N)c4Cl)c(N)n3)CC2)C1N , which call appears in the assay record?
### Response false (0)

### Prompt I'd appreciate the recorded outcome for CC(=O)Nc1cccc(-n2c(=O)n(C3CC3)c(=O)c3c(Nc4ccc(I)cc4F)n(C)c(=O)c(C)c32)c1 + CC1OCC2(CCN(c3cnc(Sc4ccnc(N)c4Cl)c(N)n3)CC2)C1N from this test.
### Response false (0)

----------
System: KRAS patient-derived spheroids with HUVEC/MSC, viability
Assay: Anticancer human tumor 323965-272-R-J2-PDC cell line growth inhibition [KRAS2];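 further: spheroids exposed to agents for 7 days; 100% = DMSO vehicle control viability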
Settings: second compound 3.16 µM; first compound 0.1 µM; active compounds read low
Task for the reader: assign each of the following compounds its reported viability, T/C.
Return type: number; implicit unit %.

Measured viability, T/C, COc1cc2nccc(Oc3ccc(NC(=O)C4(C(=O)Nc5ccc(F)cc5)CC4)cc3)c2cc1OC + COc1cc2nc(C)nc(NC(C)c3cc(N)cc(C(F)(F)F)c3)c2cc1OC1CCOC1 : 85.3

Looking up Cn1nccc1Nc1nccc(-c2cc3c(s2)C(C)(C)N(CCN2CCOCC2)C3=O)n1 + C=CC(=O)N1CCN(c2nc(OCC3CCCN3C)nc3c2CCN(c2cccc4cccc(C)c24)C3)CC1CC#N , I found its viability, T/C recorded as 4.06

The reported value for COc1cc(Nc2ncc3c(n2)-c2ccc(Cl)cc2C(c2c(F)cccc2OC)=NC3)ccc1C(=O)O + COc1cc2nc(C)nc(NC(C)c3cc(N)cc(C(F)(F)F)c3)c2cc1OC1CCOC1 in terms of viability, T/C is 34.4

Reported viability, T/C ( CC1COCCN1c1cc(-c2ccnn2C)c2ccnc(-c3ccn[nH]3)c2n1 (configuration not stated) + CC1OCC2(CCN(c3cnc(Sc4ccnc(N)c4Cl)c(N)n3)CC2)C1N ) = 4.72

viability, T/C for COc1cc2nccc(Oc3ccc(NC(=O)C4(C(=O)Nc5ccc(F)cc5)CC4)cc3)c2cc1OC + CNCc1ccccc1-c1csc(C(C)Nc2nc(C)nc3cc(OC)c(OC)cc23)c1 is 91.8

Sample CN(C)C/C=C/C(=O)Nc1cc2c(Nc3ccc(F)c(Cl)c3)ncnc2cc1O[C@H]1CCOC1 + COc1cc2nc(C)nc(NC(C)c3cc(N)cc(C(F)(F)F)c3)c2cc1OC1CCOC1 ; viability, T/C observed: 49.2

// field: viability, T/C; key: COc1cc(Nc2ncc3c(n2)-c2ccc(Cl)cc2C(c2c(F)cccc2OC)=NC3)ccc1C(=O)O + C=CC(=O)N1CCN(c2nc(OCC3CCCN3C)nc3c2CCN(c2cccc4cccc(C)c24)C3)CC1CC#N ; value = 13.2
